Where these numbers come from: patent US20250270343A1

Recorded koff, one value per entry.
# Subject Of Test: T1, soluble human GPNMB (recombinant extracellular domain) (human, UniProt Q14956 23-498)
# T1 construct: also called huGPNMB; recombinant human GPNMB extracellular domain; not shown: C-terminal polyhistidine or Avi-His tag
# T1 sequence: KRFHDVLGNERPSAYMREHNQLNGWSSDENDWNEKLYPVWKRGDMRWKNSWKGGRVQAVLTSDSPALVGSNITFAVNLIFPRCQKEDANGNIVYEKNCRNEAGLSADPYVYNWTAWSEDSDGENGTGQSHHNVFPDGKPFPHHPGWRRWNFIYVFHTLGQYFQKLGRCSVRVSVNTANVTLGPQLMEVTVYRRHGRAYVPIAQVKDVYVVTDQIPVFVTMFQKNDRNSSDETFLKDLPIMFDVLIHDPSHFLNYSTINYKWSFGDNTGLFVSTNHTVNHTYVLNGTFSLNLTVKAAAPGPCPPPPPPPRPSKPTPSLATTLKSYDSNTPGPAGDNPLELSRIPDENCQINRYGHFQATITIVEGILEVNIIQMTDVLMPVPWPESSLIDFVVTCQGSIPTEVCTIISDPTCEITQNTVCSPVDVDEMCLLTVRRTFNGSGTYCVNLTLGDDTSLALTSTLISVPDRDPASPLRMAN
# Experiment Description: SPR Carterra, Ab immobilized
Your answer is read as s⁻¹, so omit the unit and give the number.

Binder	Property Label	Result Value
anti-GPNMB antibody GPN-22 (antibody, human IgG1, V domains shown, chimeric) VH: QVQLQQPGAERVKPGASVKMSCKASGYTFTSYWITWVKQRPGQGLEWIGDIFPGSGSTNYHEKFKSKATLTVDTSSSTAYMQLSSLTSEDSAVYYCSRGYFGSSFSDYWGQGTSVTVSS VL: DIQMTQSPSSLSASLGERVSLTCRTSQEISGYLSWLQQKPDGTIKRLIYSTSTLDSGVPKRFSGSRSGSDYSLTISSLESEDFADYYCLQYASSPPTFGSGTKLEIK	koff	0.0034

Let us examine a further case.
Quick check: koff of anti-GPNMB antibody GPN-09 (antibody, human IgG1, V domains shown, chimeric) VH: QVQLQQSGAELVKPGASVKLSCKASGYTFTSYYIYWVKQRPGQGLEWIGEINPSNGGTYFNEKFKNKATLTVDKSSSTAYMQLSSLTSEDSAVYYCTRGGNYYAYWGQGTLVTVSA VL: DIQMTQSPSSLSASLGERVSLTCRASQEISGHLGWLQQKPDGTIKRLIYAALTLDSGVPKRFSGSRSGSDYSLTISSLESEDFADYYCLQYASYPYTFGGGTKLEIK ?
0.00011
